target: Carbonic anhydrase 9 (Homo sapiens); experiment: Binding affinity to recombinant human carbonic anhydrase 9 after 15 mins by stopped-flow CO2 hydration assay
// values below are reported Ki
Just the number in µM, nothing appended.

Notebook entry, Carbonic anhydrase 9 (Homo sapiens) assay: Ki of NS(=O)(=O)c1ccc(CNC(=O)CCCc2ccc(N(CCCl)CCCl)cc2)cc1 = ? 8.97

Notebook entry, Carbonic anhydrase 9 (Homo sapiens) assay: Ki of NS(=O)(=O)c1ccc(CCNC(=O)OCCCCc2ccc(N(CCCl)CCCl)cc2)cc1 = ? 3.85

Notebook entry, Carbonic anhydrase 9 (Homo sapiens) assay: Ki of NS(=O)(=O)c1ccc(CNC(=O)OCCCCc2ccc(N(CCCl)CCCl)cc2)cc1 = ? 4.13

Notebook entry, Carbonic anhydrase 9 (Homo sapiens) assay: Ki of NS(=O)(=O)c1ccc(NC(=O)CCCc2ccc(N(CCCl)CCCl)cc2)cc1 = ? 0.172

---

system: MDCK; assay: Cytotoxicity against carbonic anhydrase 9 knockdown MDCK cells assessed as reduction in cell viability preincubated for 2 hrs followed by 72 hrs incubation under normoxic condition by Alamar blue assay; type: cell-based; settings: Canis lupus familiaris
IC50 strictly under 90 µM means satisfied; at 90 µM or over means not satisfied.

{"columns": ["entry-smiles", "class-name"],
 "data": [
  ["NS(=O)(=O)c1ccc(CNC(=O)CCCc2ccc(N(CCCl)CCCl)cc2)cc1", "satisfied"],
  ["O=C(O)CCCc1ccc(N(CCCl)CCCl)cc1", "not satisfied"],
  ["NS(=O)(=O)c1ccc(CCNc2n[n+]([O-])c3ccccc3[n+]2[O-])cc1", "not satisfied"],
  ["NS(=O)(=O)c1ccc(CCNC(=O)CCCc2ccc(N(CCCl)CCCl)cc2)cc1", "satisfied"],
  ["NS(=O)(=O)c1ccc(CNC(=O)OCCCCc2ccc(N(CCCl)CCCl)cc2)cc1", "satisfied"]
]}

Bench note: check whether NS(=O)(=O)c1ccc(NC(=O)CCCc2ccc(N(CCCl)CCCl)cc2)cc1 shows IC50 below 90 µM not satisfied

Bench note: check whether Nc1n[n+]([O-])c2ccccc2[n+]1[O-] shows IC50 below 90 µM not satisfied

Bench note: check whether NS(=O)(=O)c1ccc(NC(=O)OCCCCc2ccc(N(CCCl)CCCl)cc2)cc1 shows IC50 below 90 µM satisfied

Bench note: check whether NS(=O)(=O)c1ccc(CCNc2n[n+]([O-])c3cc4c(cc3[n+]2[O-])CCC4)cc1 shows IC50 below 90 µM not satisfied

---

tested on: MDCK; test: Cytotoxicity against carbonic anhydrase 9 knockdown MDCK cells assessed as reduction in cell viability after 2 hrs under hypoxic condition by Alamar blue assay; format: cell-based; settings: Canis lupus familiaris
experimental-readout: pIC50
Recall that pIC50 is obtained by taking minus log10 of the concentration measured in molar.

# count of solved cases: 2
{"columns": ["entry-smiles", "observed-result"],
 "data": [
  ["O=C(O)CCCc1ccc(N(CCCl)CCCl)cc1", 4.00],
  ["NS(=O)(=O)c1ccc(CCNC(=O)OCCCCc2ccc(N(CCCl)CCCl)cc2)cc1", 4.09]
]}

Next compound, please.
Which pIC50 is reported for this compound? NS(=O)(=O)c1ccc(NC(=O)CCCc2ccc(N(CCCl)CCCl)cc2)cc1 4.00
